molecular target: human glucagon-like peptide 1 receptor (human, UniProt P43220 24-463); experiment: cell-based or functional assay
Where no end group is shown, it is not given here. [ ]: non-standard residue; d: D form. Aib = CC(C)(N)C(=O)O
The binders listed here are annotated with their hGLP-1R CRE Luc EC50 (pM).
Only the number, expressed in pM, is required.

>  <binder>
Y[Aib]QGTFTSDYSIYKDKQAA[Aib]EFVNWLLAGGPSSGAPPPS-NH2 (not fully specified (residue 14)) [Compound No. 63]

>  <measurement-label>
hGLP-1R CRE Luc EC50 (pM)

>  <value>
25

$$$$
>  <binder>
Y[Aib]QGTFTSDYSIYLDKKAA[Aib]EFVNWLLAGGPSSGAPPPS-NH2 (not fully specified (residue 17); printed as Y-Aib-QGTFTSDYSIYLDK-K[2-[2-[2-[[2-[2-[2-[[(4S)-4-carboxy-4-(17-carboxyheptadecanoylamino)butanoyl]amino]ethoxy]ethoxy]acetyl]amino]ethoxy]ethoxy]acetyl]-AA-Aib-EFVNWLLAGGPSSGAPPPS-NH2) [Compound No. 2]

>  <measurement-label>
hGLP-1R CRE Luc EC50 (pM)

>  <value>
7.1

$$$$

We next turn to a different binder, shown below.
// recorded hGLP-1R CRE Luc EC50 (pM) for Y[Aib]QGTFTSDYSIYLDKQAA[Aib]EFVNWLLAKGPSSGAPPPS-NH2 (not fully specified (residue 29)) [Compound No. 65] : 132
